# system under test: Cystic fibrosis transmembrane conductance regulator (Homo sapiens, UniProt P13569, F508DEL)
# Sequence (P13569 as listed by the source): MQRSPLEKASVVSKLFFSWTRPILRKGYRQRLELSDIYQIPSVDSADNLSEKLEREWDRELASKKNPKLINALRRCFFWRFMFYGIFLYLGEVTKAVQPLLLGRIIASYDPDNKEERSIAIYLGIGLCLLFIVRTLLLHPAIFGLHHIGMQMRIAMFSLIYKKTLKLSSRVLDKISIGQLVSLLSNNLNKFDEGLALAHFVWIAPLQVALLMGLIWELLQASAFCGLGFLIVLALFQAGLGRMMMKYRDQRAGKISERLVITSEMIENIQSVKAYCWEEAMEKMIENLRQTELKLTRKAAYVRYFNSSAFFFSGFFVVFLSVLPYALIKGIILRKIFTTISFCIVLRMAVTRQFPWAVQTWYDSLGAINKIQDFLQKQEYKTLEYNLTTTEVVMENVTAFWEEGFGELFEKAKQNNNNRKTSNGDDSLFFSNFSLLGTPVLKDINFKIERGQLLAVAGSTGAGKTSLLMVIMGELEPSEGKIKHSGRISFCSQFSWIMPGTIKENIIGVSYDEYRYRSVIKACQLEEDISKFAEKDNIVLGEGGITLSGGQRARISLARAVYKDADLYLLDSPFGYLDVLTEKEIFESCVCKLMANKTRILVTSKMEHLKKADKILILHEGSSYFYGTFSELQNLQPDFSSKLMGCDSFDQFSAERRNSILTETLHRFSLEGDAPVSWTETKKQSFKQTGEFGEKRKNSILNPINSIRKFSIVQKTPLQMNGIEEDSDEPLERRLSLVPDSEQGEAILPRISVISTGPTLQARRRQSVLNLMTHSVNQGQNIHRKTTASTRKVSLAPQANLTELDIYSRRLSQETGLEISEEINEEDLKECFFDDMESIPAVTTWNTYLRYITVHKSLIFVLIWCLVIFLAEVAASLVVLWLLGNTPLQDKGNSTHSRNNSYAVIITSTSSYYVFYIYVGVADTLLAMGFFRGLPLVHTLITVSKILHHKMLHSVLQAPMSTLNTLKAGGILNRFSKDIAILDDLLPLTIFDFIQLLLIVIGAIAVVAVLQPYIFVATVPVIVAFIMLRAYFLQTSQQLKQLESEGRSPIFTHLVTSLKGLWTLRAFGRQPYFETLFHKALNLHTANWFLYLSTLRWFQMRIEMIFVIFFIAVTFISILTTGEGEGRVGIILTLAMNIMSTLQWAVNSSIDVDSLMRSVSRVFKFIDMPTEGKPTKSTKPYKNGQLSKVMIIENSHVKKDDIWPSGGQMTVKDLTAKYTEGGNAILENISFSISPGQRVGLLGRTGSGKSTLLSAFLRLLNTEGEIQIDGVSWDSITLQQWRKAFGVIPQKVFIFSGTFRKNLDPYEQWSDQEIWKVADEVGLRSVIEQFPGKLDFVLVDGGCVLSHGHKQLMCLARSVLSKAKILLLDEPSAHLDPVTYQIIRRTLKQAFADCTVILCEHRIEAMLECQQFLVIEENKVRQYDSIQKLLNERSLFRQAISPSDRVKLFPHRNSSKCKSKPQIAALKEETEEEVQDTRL
# assay protocol: Corrector activity at […] CFTR F508del mutant (unknown origin) expressed in BHK cells assessed as increase in chloride secretion […]
# Format: cell-based
quantity kind: EC50 (nM)
Give a bare numeral; the unit nM is implied.

Task: Consider the compound shown here: `O=C(Nc1ncc(Cc2ccccc2Cl)s1)C(c1ccccc1)c1ccccc1` What is its recorded EC50?
Result: 81

====

# system under test: Cystic fibrosis transmembrane conductance regulator (Homo sapiens, UniProt P13569, F508DEL)
# assay protocol: Potentiation of CFTR F508del mutant (unknown origin) expressed in NIH3T3 cells
# Assay type: cell-based
Give measured EC50 for each item. Keep answers brief.
I only need the number, in µM, no unit after it.

Task: Need EC50, item `CC(C)(CO)c1cc2cc(NC(=O)C3(c4ccc5c(c4)OC(F)(F)O5)CC3)c(F)cc2n1C[C@@H](O)CO`
Result: 1.1

Task: Please report the recorded EC50 for `O=C(Nc1ncc(Cc2ccccc2Cl)s1)C(c1ccccc1)c1ccccc1` .
Result: 7

Task: EC50 lookup needed for COc1ccc(S(=O)(=O)N2CCN(C(C)c3nc(OC4CCCCC4)c4ccccc4n3)CC2)cc1 (stereo not drawn) , thanks.
Result: 3.3

Attribution: ChEMBL document CHEMBL5523680
